FYI, the data here is from PubChem BioAssay (NCI).

System: KM20L2 colon
Assay: NCI tumour cell line growth inhibition, 48 h
Let's look at some compounds and their measured TGI.

// worked examples, TGI included
O=C(NO)C(=O)Nc1ccc(Cl)cc1[N+](=O)[O-]: > 100 µM
COc1cc([C@@H]2c3cc4c(cc3[C@@H](NC(=O)c3cccc(F)c3)C3COC(=O)[C@@H]32)OCO4)cc(OC)c1O (some centres not stated): 6.89 µM
O=C(NCCCCCCCCNC(=O)c1cccc2ccccc12)c1cccc2ccccc12: > 100 µM
O=C(CC(=O)C1CCOC1=O)C(=O)Nc1ccc(Cl)cc1Cl (configuration not stated): > 100 µM
OC(c1ccccn1)C1CNc2ccccc21 (configuration not stated): > 100 µM

query: # lookup: TGI of COC(=O)[C@@]12OC[C@]34C([C@@H](O)C1O)[C@@]1(C)CC(=O)C(OC(=O)/C=C(/c5ccccc5)C(F)(F)F)=C(C)C1C[C@H]3OC(=O)[C@H](O)[C@H]42 (some centres not stated)
result: 36.6 µM

query: # lookup: TGI of CC(C)C(/C=C/c1ccc(Br)cc1)=N\NC(N)=O
result: > 100 µM
